study-target: Recombinant human cathepsin A (Homo sapiens, UniProt P10619)
Construct: Recombinant human cathepsin A (residues 29-480, with a C-terminal 10-His tag); 10-His (C)
test-summary: Cathepsin A inhibitory activity
condition-summary: activated recombinant human cathepsin A 833 ng/ml, Bodipy FL-labeled bradykinin 2 μM, pH 5.5, 15 min room temperature
pIC50: −log10 of the molar value.
Tag: TRUE if measured pIC50 is not below 6, FALSE if it is.

Hi, just wondering whether `Cc1ccccc1[C@H](CC(=O)O)NC(=O)c1nc(C(C)C)n(-c2ccccc2Cl)n1` shows pIC50 of 6 or higher.
TRUE

Hi, just wondering whether `Cc1oc(-c2ccccc2F)nc1C(=O)N[C@@](C)(CC(=O)O)c1ccccc1` shows pIC50 of 6 or higher.
FALSE

Hi, just wondering whether `CCc1nc(C(=O)N[C@@H](CC(=O)O)c2ccccc2C)nn1-c1c(Cl)cccc1Cl` shows pIC50 of 6 or higher.
TRUE

Hi, just wondering whether `Cc1oc(-c2ccccc2)nc1C(=O)N[C@@H](CC(=O)O)c1ccccc1F` shows pIC50 of 6 or higher.
FALSE

Hi, just wondering whether `Cc1oc(-c2ccccc2F)nc1C(=O)N[C@@H](CC(=O)O)c1cccc(Cl)c1Cl` shows pIC50 of 6 or higher.
TRUE

In the following, a different compound is considered.
Hi, just wondering whether `Cc1ccccc1[C@H](CC(=O)O)NC(=O)c1nn(C)cc1NS(=O)(=O)CC1CCCCC1` shows pIC50 of 6 or higher.
FALSE

###

Known IC50 of a selection of compounds
study-target: Recombinant human cathepsin A (Homo sapiens, UniProt P10619)
Construct: Recombinant human cathepsin A (residues 29-480, with a C-terminal 10-His tag); 10-His (C)
Sequence (P10619 29-326 limits assumed): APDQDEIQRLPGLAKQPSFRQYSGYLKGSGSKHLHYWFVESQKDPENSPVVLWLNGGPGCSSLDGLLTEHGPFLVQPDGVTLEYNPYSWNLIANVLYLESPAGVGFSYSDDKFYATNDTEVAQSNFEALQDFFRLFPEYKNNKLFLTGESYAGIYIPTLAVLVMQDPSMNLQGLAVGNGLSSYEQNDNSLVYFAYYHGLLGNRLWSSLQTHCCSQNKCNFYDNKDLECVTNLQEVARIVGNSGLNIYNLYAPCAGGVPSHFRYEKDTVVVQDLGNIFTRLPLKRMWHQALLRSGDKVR
Sequence (P10619 327-480 limits assumed): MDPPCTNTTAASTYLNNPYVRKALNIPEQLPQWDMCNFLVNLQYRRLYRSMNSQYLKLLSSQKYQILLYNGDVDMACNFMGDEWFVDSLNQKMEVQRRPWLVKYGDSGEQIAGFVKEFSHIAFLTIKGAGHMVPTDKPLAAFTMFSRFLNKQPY
test-summary: Cathepsin A inhibitory activity
condition-summary: activated recombinant human cathepsin A 833 ng/ml, Bodipy FL-labeled bradykinin 2 μM, pH 5.5, 15 min room temperature
Respond with the bare value in nM.

Some compounds with recorded IC50:
What does the record list as IC50 for `CC(C)c1oc(-c2ccccc2)nc1C(=O)N[C@@H](CC(=O)O)c1ccc(Cl)cc1Cl` ?
9210

What does the record list as IC50 for `CCCc1nc(C(=O)N[C@@H](CC(=O)O)c2ccc(C)cc2)nn1-c1ccccc1Cl` ?
335

// next item, IC50 requested
What does the record list as IC50 for `O=C(O)C[C@H](NC(=O)c1nc(-c2ccccc2)n(-c2ccccc2)n1)c1cccc(Cl)c1` ?
128

###

study-target: Recombinant human cathepsin A (Homo sapiens, UniProt P10619)
Construct: Recombinant human cathepsin A (residues 29-480, with a C-terminal 10-His tag); 10-His (C)
Sequence (P10619 29-326 limits assumed): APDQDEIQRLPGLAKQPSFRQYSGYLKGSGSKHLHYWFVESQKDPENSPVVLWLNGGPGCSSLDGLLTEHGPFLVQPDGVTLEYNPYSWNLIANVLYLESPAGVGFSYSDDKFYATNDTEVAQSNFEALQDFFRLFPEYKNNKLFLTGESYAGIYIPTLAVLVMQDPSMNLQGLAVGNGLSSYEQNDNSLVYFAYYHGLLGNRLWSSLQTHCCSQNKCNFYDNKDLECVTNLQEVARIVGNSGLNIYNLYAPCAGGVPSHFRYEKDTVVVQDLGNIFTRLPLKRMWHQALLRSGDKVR
Sequence (P10619 327-480 limits assumed): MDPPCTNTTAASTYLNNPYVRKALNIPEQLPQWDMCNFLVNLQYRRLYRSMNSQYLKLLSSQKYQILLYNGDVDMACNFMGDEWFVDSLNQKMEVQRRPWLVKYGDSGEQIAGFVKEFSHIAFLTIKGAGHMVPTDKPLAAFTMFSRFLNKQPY
test-summary: Cathepsin A inhibitory activity
condition-summary: activated recombinant human cathepsin A 833 ng/ml, Bodipy FL-labeled bradykinin 2 μM, pH 5.5, 15 min room temperature
Protocol: a) Cathepsin a Inhibitory Activity Briefly, cathepsin A was incubated at 10 μg/ml with cathepsin L at 1 μg/ml in activation buffer (25 mM 2-(morpholin-4-yl)-ethanesulfonic acid (MES), pH 6.0, containing 5 mM dithiothreitol (DTT)) for 15 min at 37° C. […] Uncleaved substrate and product were then separated by a microfluidic capillary electrophoresis on a LabChip® 3000 Drug Discovery System (12-Sipper-Chip; Caliper Life Sciences) and quantified by determination of the respective peak areas. […]
pIC50: −log10 of the molar value.
Tag: satisfied if measured pIC50 is not below 6, not satisfied if it is.

Example entries and their recorded answers appear below.
Hi, just wondering whether `C[C@@](CC(=O)O)(NC(=O)c1noc(-c2cccc(F)c2F)n1)c1ccccc1` shows pIC50 of 6 or higher.
not satisfied

Hi, just wondering whether `Cc1ccc([C@H](CC(=O)O)NC(=O)c2nc(C(C)C)n(-c3ccccc3Cl)n2)cc1` shows pIC50 of 6 or higher.
satisfied

Hi, just wondering whether `Cc1ccccc1[C@H](CC(=O)O)NC(=O)c1nn(C)cc1NS(=O)(=O)CC(C)(C)C` shows pIC50 of 6 or higher.
not satisfied

Continuing:
Hi, just wondering whether `CCc1nc(C(=O)N[C@@H](CC(=O)O)c2ccc(C)cc2)nn1-c1ccccc1Cl` shows pIC50 of 6 or higher.
satisfied

Hi, just wondering whether `O=C(O)C[C@H](NC(=O)CCc1nc(-c2ccccc2F)no1)c1cccc(C(F)(F)F)c1` shows pIC50 of 6 or higher.
not satisfied

Hi, just wondering whether CCCC1CCCCN1C(=O)c1cc(C(=O)N[C@@H](CC(=O)O)c2cccc(C)c2)nn1CC (some centres unmarked) shows pIC50 of 6 or higher.
not satisfied

Hi, just wondering whether `O=C(O)C[C@H](NC(=O)CCc1nc(-c2ccccc2F)no1)c1cccc(Cl)c1Cl` shows pIC50 of 6 or higher.
not satisfied

Hi, just wondering whether `COc1cccc([C@H](CC(=O)O)NC(=O)c2nc(-c3ccccc3)oc2C)c1OC` shows pIC50 of 6 or higher.
not satisfied

Hi, just wondering whether `CCc1nc(C(=O)N[C@@H](CC(=O)O)c2ccc(C)cc2)nn1-c1c(Cl)cccc1Cl` shows pIC50 of 6 or higher.
satisfied

Hi, just wondering whether `CCCc1nc(C(=O)N[C@@H](CC(=O)O)c2ccccc2C)nn1-c1ccccc1Cl` shows pIC50 of 6 or higher.
satisfied

###

study-target: Recombinant human cathepsin A (Homo sapiens)
Construct: Recombinant human cathepsin A (residues 29-480, with a C-terminal 10-His tag); 10-His (C)
Sequence (P10619 29-326 limits assumed): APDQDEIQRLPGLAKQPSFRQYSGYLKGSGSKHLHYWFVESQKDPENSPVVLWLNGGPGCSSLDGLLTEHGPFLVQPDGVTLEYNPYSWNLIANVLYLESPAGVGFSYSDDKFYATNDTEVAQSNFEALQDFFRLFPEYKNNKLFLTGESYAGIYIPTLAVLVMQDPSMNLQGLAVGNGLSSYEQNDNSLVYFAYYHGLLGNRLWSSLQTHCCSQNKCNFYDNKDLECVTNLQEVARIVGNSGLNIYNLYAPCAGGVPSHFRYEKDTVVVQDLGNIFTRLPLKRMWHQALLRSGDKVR
Sequence (P10619 327-480 limits assumed): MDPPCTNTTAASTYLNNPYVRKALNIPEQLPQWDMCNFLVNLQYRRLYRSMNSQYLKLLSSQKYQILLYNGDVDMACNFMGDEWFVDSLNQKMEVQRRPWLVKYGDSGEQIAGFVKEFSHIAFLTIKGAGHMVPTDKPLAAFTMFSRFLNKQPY
test-summary: Cathepsin A inhibitory activity
condition-summary: activated recombinant human cathepsin A 833 ng/ml, Bodipy FL-labeled bradykinin 2 μM, pH 5.5, 15 min room temperature
Assign labels as follows, please: 1 (yes) for IC50 below 700 nM; 0 (no) for IC50 equal to or exceeding 700 nM.

Example entries and their recorded answers appear below.
Does Cc1oc(-c2ccccc2F)nc1C(=O)NC(CC(=O)O)c1ccccc1Cl (centres unmarked) have IC50 strictly under 700 nM?
0 (no)

Does `O=C(O)C[C@@H](Cc1ccccc1)NC(=O)c1noc(-c2ccccc2F)n1` have IC50 strictly under 700 nM?
1 (yes)

Does `Cc1ccccc1[C@H](CC(=O)O)NC(=O)c1cc(-c2ccccc2)n(Cc2ccc(F)cc2)n1` have IC50 strictly under 700 nM?
0 (no)

Does `Cc1ccccc1[C@H](CC(=O)O)NC(=O)c1nc(-c2ccccc2)n(-c2ccccc2)n1` have IC50 strictly under 700 nM?
1 (yes)

Does `O=C(O)C[C@H](NC(=O)c1nc(-c2ccccc2)n(-c2ccccc2)n1)c1ccccc1F` have IC50 strictly under 700 nM?
1 (yes)

Continuing:
Does `Cc1ccccc1[C@H](CC(=O)O)NC(=O)c1nn(C)cc1NS(=O)(=O)CCc1ccccc1` have IC50 strictly under 700 nM?
0 (no)

Does `Cc1oc(-c2ccccc2)nc1C(=O)N[C@@H](CC(=O)O)c1ccccc1Cl` have IC50 strictly under 700 nM?
0 (no)

Does `Cc1oc(-c2ccccc2F)nc1C(=O)N[C@@H](CC(=O)O)Cc1ccccc1` have IC50 strictly under 700 nM?
1 (yes)

Does `CC(C)c1oc(-c2ccccc2)nc1C(=O)N[C@@H](CC(=O)O)c1ccc(F)cc1` have IC50 strictly under 700 nM?
0 (no)

Reference for the values: patent US9751858B2
